Test system: Col2
assayProcedure: Cytotoxicity against human Col2 cells
Assay type: functional
details: read-out: ED50 (the source's name)
propertyName: EC50 (µg/mL)
Numeric only. Scale: µg/mL

Recorded EC50, per entry:
molecule | targetOfAssay | EC50 / µg/mL
CC(C)=CCc1c(O)c(C(=O)CC(C)CO)c2oc(=O)cc(-c3ccccc3)c2c1O (centres undefined) | Col2 | 17.4
CCC(C)c1cc(=O)oc2c(C(=O)CC(C)CO)c(O)c(CC=C(C)C)c(O)c12 (centres undefined) | Col2 | 13.1

Continue with the next molecule.
Find the measured EC50 of `Cc1c2ccncc2c(C)c2c1[nH]c1ccccc12` and report it. 0.3

Data origin: ChEMBL document CHEMBL1159386
